// provenance: paper PMC10743653

Tested on: T98G cells
Test: MTT assay, T98G
Format: cell-based, human
Conditions: Homo sapiens; T98G, MTT, 24 h treatment, mean ± SD
Task for the reader: assign each of the following compounds its reported pIC50.
Answers are plain numbers, as −log10 of the molar value.

Below, each entry is followed by its recorded pIC50 result.
{"Structure string": "O=C(C=C1SC(=O)NC1=O)Oc1ccccc1C=NNC(=S)Nc1ccccc1Cl", "Numeric readout": 4.57}
{"Structure string": "O=C(C=C1SC(=O)NC1=O)Oc1ccccc1C=NNC(=S)Nc1cccc(Cl)c1", "Numeric readout": 4.55}
{"Structure string": "O=C(C=C1SC(=O)NC1=O)Oc1ccc(C=NNC(=S)Nc2ccc(Cl)cc2Cl)cc1", "Numeric readout": 4.03}

I would be grateful if you could share the reported pIC50 for O=C(C=C1SC(=O)NC1=O)Oc1cccc(C=NNC(=S)Nc2ccccc2Cl)c1 .
4.37
